Sourced from the supplement of paper PMC4466140

- target: AgLsb4
- experiment summary: SPOT peptide array binding signal intensity (averaged, normalized) (arbitrary units (background-subtracted, floor 0; scale differs between SH3 domains)); higher = stronger binding of the SH3 domain to the peptide
test readout: SPOT peptide array binding signal intensity

{"binder": "LRIKRKPVQTFFEFI", "recorded value": 136}
{"binder": "FVLRYYILIPHEQWD", "recorded value": 334}
{"binder": "NLDRSKISLPDFDDE", "recorded value": 18}
{"binder": "IKKRNKIRLPSGSPE", "recorded value": 97}
{"binder": "QGYPRQPQRPQRYHP", "recorded value": 47}
{"binder": "LKPPIGRPPKFPKSP", "recorded value": "≤ 0"}
{"binder": "AHFQPQRTAPKPPIS", "recorded value": 0.5}
{"binder": "QPPLPSSAPPIPTSH", "recorded value": "≤ 0"}
{"binder": "GSKSGPPPRPKKPST", "recorded value": "≤ 0"}
{"binder": "APPPPPRRATPEKKP", "recorded value": 192}
{"binder": "STKKPRPPVKSKPKH", "recorded value": 4}
{"binder": "PPPPPPPPPPPLPQS", "recorded value": "≤ 0"}
{"binder": "AAHKTKPSIPPKKVE", "recorded value": "≤ 0"}
{"binder": "RKLRTVPGVPLIHLT", "recorded value": 18}
{"binder": "LKVTPGRRAPTISKI", "recorded value": "≤ 0"}
